- Protocol text: gradient 5% acetonitrile 3 min, to 50% in 2 min, to 85% in 15 min, held 3 min, 100 µL/min
- Study conditions: column: Zorbax Extend-C18 2.1 x 50 mm; eluents: water / acetonitrile, 0.1% formic acid
Rule: RP-LC retention time under 700 s gives Not met, otherwise Met.

>>> print(df.to_string())
                                    compound  assigned_category
 0  CC(C)CNC(=O)c1cn(-c2ccc(S(=O)(=O)N3CCCC(C)C3)cn2)cn1 (centres undefined)                Met
 1  CCc1nncn1C1CCN(S(=O)(=O)c2ccc(C)c(C)c2)CC1                Met
 2     CCc1ccccc1NC(=O)C(=O)NCC1CCN(CCOC)CC1            Not met
 3  O=C(c1cccs1)N1CCCC(c2nnc(-c3ccccc3)o2)C1 (centres undefined)                Met
 4  COc1ccc(-c2nc(CNC(=O)Cn3cnc(-c4cccs4)cc3=O)cs2)cc1                Met
 5  Cc1ccc(N2C(=O)C3N=NN(Cc4nc(-c5ccc(OC(C)C)cc5)no4)C3C2=O)cc1F (centres undefined)                Met
 6  C=Cc1ccc(CN2N=C(C(=O)N3CCOCC3)S(=O)(=O)c3ccc(C)cc32)cc1                Met
 7     O=C(Nc1cnc(-c2ccccc2)nc1)c1cccc(Cl)c1                Met
 8  Cc1ccc(C(=O)Nc2cccc(C(F)(F)F)c2)cc1Nc1nc(-c2cccnc2)nc2c1cnn2C                Met
 9  OCCN1CCN(CC(O)COc2ccc3c(c2)CCC3)CC1 (centres undefined)            Not met
10  COc1ccc(OC)c(CN2CCc3nc(N4CCOCC4)ncc3C2)c1            Not met
11  CCn1cc(S(=O)(=O)N2CCCn3nc(-c4cccs4)cc3C2)cn1                Met
12  COc1cc(C2CC(=O)c3cnc(N4CCN(C)CC4)nc3C2)cc(OC)c1OC (centres undefined)            Not met
13  Cn1cc(C2=CCN(S(=O)(=O)c3cccc(Cl)c3)CC2)c2cccnc21                Met
14     COc1ccc(-c2nnc(Cc3nc(C(C)C)no3)o2)cc1                Met
15     COc1ccc(-c2cc3n(n2)CCCN(C(C)=O)C3)cc1            Not met
16  CCN(CC)S(=O)(=O)c1ccc2c(c1)N(CC(=O)NCc1ccc(C)o1)C(=O)C1CCCCN21 (centres undefined)                Met
17  COc1ccc(NC(=O)Cn2c(C(C)C)nc3c(c2=O)CCN(Cc2ccccc2)C3)cc1OC            Not met
18  CCc1nc(-c2ccc3c(c2)CCN3C(=O)Cc2ccc(F)cc2)no1                Met
19  CCCCN(Cc1ccco1)C(=O)C1CCCN(c2ncnc3c2nc2n3CCCCC2)C1 (centres undefined)                Met
20  CC(C)CCN1C(=O)CN(S(=O)(=O)c2ccccc2)CC1(C)C(=O)NCc1ccc(F)cc1 (centres undefined)                Met
21   Fc1cccc(CSc2ccc(-c3ccc4c(c3)OCO4)nn2)c1                Met
22  COCC1CN(C(=O)c2ccoc2C)CCC1(F)F (centres undefined)                Met
23  CCCNc1cc(N2CCCC(CCC(=O)NCc3ccccn3)C2)ncn1 (centres undefined)            Not met
24  CN(C)c1ccc(C(CNC(=O)C(=O)Nc2ccc(F)c(Cl)c2)N2CCCC2)cc1 (centres undefined)            Not met
25  CCOC(=O)C1CCN(C(=O)c2ccc3c(c2)NC(=O)C2CCCCN32)CC1 (centres undefined)            Not met
26  COC(=O)c1cc(S(=O)(=O)N2CCCC2C(=O)Nc2ccc(F)c(Cl)c2)cn1C (centres undefined)                Met
27  COC[C@@H]1CN(Cc2ccc3cc[nH]c3c2)C[C@H]1c1nc(C)no1            Not met
28  O=C(CCC1CCN(c2cc(NC3CC3)ncn2)CC1)NCc1cccs1            Not met
29    O=C(NCc1ccccc1)c1ccc(=O)n(CCN2CCCC2)c1            Not met
30  CCOC(=O)c1c(C)[nH]c(C(=O)N2CCC(CC(=O)N3CCN(c4ccccn4)CC3)CC2)c1C            Not met
31  O=C(Nc1ccc2c(c1)OCCO2)N1CCCC(c2nnnn2-c2ccccc2)C1 (centres undefined)                Met
32  CCc1sc(NC(=O)Cc2csc(C)n2)nc1-c1ccc(Br)cc1                Met
33  Cc1ccc(NC(=O)C2CCN(S(=O)(=O)c3cc(C(=O)N4CCCC4)cs3)CC2)cc1Cl                Met
34  COCc1noc([C@@H]2CN(C(=O)c3ccc(Cl)s3)C[C@H]2C(N)=O)n1            Not met
